Origin of measurements: patent US12522594B2

Reported pIC50 values for the following compounds.
molecular target: AHR (Homo sapiens); assay: In vitro assay 3: AHR-regulated CYP1A1 expression in human cell line (U937, qPCR, KA stimulation); assay type: cell-based; conditions: U937 cells, 200 uM KA, 6 hours, CYP1A1 expression by qPCR; read-out: Assay 3: Hum CYP1A1 Antagonism IC50
Sequence (P35869 11-848): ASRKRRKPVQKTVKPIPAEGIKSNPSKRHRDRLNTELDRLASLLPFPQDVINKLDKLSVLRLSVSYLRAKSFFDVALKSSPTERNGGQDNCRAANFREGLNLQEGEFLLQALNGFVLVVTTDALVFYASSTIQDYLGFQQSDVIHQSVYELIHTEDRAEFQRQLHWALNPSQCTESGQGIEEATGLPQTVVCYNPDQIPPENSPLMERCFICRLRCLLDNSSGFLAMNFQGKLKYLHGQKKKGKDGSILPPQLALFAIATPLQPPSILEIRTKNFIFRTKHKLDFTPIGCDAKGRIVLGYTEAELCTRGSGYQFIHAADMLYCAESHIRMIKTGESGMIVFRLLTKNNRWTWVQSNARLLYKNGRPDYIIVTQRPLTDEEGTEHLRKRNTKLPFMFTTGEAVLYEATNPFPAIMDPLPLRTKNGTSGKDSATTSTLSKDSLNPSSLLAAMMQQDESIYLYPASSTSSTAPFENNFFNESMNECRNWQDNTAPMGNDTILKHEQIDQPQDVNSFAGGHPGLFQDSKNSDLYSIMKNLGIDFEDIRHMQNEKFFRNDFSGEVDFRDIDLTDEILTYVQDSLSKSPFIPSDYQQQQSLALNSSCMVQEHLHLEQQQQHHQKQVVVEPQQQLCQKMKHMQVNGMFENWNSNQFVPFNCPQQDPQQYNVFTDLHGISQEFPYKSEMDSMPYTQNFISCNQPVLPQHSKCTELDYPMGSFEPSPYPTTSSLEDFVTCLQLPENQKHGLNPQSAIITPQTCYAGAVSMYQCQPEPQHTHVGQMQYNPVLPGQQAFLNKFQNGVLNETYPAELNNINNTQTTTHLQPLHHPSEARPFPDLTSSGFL
# pIC50: negative log10 of molar concentration; output just the value

O=C(NC[C@H](O)CO)c1cc(-c2ccc(Cl)cc2)nn(-c2cccnc2)c1=O | 6.31

INPUT: Dear colleague, I am looking for the recorded pIC50 of the following compound: O=C(NC[C@H](O)C(F)(F)F)c1cc(-c2ccc(C(F)F)cc2)nn(-c2cccnc2)c1=O
OUTPUT: 8.42

INPUT: Also check C[C@@H](CO)NC(=O)c1cc(-c2ccc(C(F)F)cc2)nn(-c2cnn(C)c2)c1=O
OUTPUT: 7.97

INPUT: Also check O=C(N[C@H]1CCC[C@H]1O)c1cc(-c2ccc(OC(F)(F)F)cc2)nn(-c2cccnc2)c1=O
OUTPUT: 7.95
